Property: GI50; scope: individual molecules
- Test system: NCI/ADR-RES
- MEASUREMENT DESCRIPTION: NCI tumour cell line growth inhibition, 48 h
Activity calls are given as the source filed them. Cut-off read from the data, not from the text of the source: active = GI50 up to about 1.1 µM and inactive = higher.

Some molecules with known GI50 results, for comparison:
> print(dat)
                                   molecule               result
1  CCOC(=O)CC1(N)CC2c3ccccc3OC(=O)C2C(=O)N1 (centres undefined)  > 100 µM (inactive)
2  NS(=O)(=O)c1ccc(NC(=S)N/C=C2\C(=O)Oc3ccccc3C2=O)cc1   31.4 µM (inactive)
3    O=[N+]([O-])/C(C(Cl)=C(Cl)Cl)=C1\NCCO1  > 100 µM (inactive)

We next turn to a different molecule, shown below.
Exam item: Query: GI50; subject: CC(=O)CC1(OC(=O)C2C(C=C(C)C)C2(C)C)C(=O)Nc2ccccc21 (centres undefined)
Marked response: 68.5 µM (inactive)
